Assay: thallium flux activation in parental CHO cells, counter-screen for KCNQ1 potentiator project (AID 493006);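 for activation: fluorescence ratio of max minus min over baseline after K+ and Tl+ depolarization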
Conditions: parental CHO-K1 cells, FluxOR thallium flux, at 10 µM
The source made the active and inactive calls.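 Rule for the calls: active = duplicate-averaged activation above buffer control mean plus 5 SD of those controls; inactive = the rest.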
Reply using exactly one outcome from active, inactive

Reference set, count: 4
{"MOLECULE": "O=C(NNc1c2ccccc2nc2ccccc12)c1ccccc1Cl", "CLASSIFICATION": "inactive"}
{"MOLECULE": "CCOC(=O)Cc1csc(NC(=S)NC(=O)c2ccccc2Br)n1", "CLASSIFICATION": "active"}
{"MOLECULE": "COC(=O)c1sc(NC(=S)NC(=O)c2ccccc2)nc1C", "CLASSIFICATION": "inactive"}
{"MOLECULE": "Cc1onc(-c2ccccc2)c1C(=O)NNC(=S)NC(=O)c1ccc(Cl)cc1Cl", "CLASSIFICATION": "inactive"}

Assay result, entry CCOC(=O)c1ccc(NC(=S)N2CCSC2c2ccc(Br)cc2)cc1 (stereo unspecified) — outcome? inactive

Each molecule tested received a call. Report the one for CCCN(CCC)C(=S)NC(=O)c1ccc(Cl)cc1Cl . active

Tell me the assay call for COCCCNc1nc2ccccc2nc1NS(=O)(=O)c1cccs1 please. inactive

For CCCn1c(SCC(=O)Nc2cccc(NC(C)=O)c2)nnc1C(C)C , what call appears in the results of this test? inactive

Can you look up the reported call for Oc1[nH]c2c(Cl)cc(Cl)cc2c1N=NC(=S)NCC1CCCO1 (stereo unspecified) for me? active

Tell me the recorded outcome of this test for O=C(Nc1ccncc1)c1ccc([N+](=O)[O-])cc1Cl . inactive

Could you kindly confirm the outcome this assay logged for Cc1ccc(C(C#N)c2ccc3c(C(F)(F)F)cc(C(F)(F)F)nc3n2)cc1 (stereo unspecified) ? active

---

Target: Potassium voltage-gated channel subfamily KQT member 2 (Rattus norvegicus) (UniProt O88943)
Sequence (O88943 whole entry, looked up): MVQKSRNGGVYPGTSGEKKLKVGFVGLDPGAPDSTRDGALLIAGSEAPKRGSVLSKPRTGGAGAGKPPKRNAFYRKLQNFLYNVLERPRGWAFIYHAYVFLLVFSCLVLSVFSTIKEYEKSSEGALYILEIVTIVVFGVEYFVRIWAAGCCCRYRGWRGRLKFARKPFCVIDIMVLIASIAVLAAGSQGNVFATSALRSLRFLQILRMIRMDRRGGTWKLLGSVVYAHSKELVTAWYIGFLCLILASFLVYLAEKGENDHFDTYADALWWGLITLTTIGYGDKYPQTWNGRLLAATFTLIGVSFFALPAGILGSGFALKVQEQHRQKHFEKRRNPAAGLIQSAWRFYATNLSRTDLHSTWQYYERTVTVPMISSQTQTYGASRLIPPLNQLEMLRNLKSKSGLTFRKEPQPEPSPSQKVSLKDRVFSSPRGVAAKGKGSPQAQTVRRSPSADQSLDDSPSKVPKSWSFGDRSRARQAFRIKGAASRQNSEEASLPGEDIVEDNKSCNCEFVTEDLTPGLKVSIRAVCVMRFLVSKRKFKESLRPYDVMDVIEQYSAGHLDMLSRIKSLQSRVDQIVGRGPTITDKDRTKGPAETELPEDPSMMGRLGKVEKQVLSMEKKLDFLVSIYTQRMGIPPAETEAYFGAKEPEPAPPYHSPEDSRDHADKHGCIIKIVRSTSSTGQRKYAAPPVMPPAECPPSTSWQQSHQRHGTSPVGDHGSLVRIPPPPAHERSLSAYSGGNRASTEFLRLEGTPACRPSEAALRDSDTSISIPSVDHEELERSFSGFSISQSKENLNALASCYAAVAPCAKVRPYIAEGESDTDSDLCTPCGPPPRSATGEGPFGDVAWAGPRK
Assay: rat KCNQ2 channel potentiation, selectivity assay for KCNQ1 potentiator project, KCNQ2-CHO-K1 cells (AID 493009);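 note: assay conditions were tuned for KCNQ1 rather than KCNQ2 modulators; signal is max minus min fluorescence divided by baseline after thallium stimulus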
Conditions: FluxOR thallium flux fluorescence, at 10 µM, scaled: buffer 0, activator control 100
Activity calls are given as the source filed them.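 The calls were made as follows: active = mean duplicate potentiation above the buffer control mean plus 5 SD of buffer wells; inactive = the rest.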
# output must be one of 1.0 (active), 0.0 (inactive)

{"COMPOUND": "CC1(c2ccc(OC(F)F)cc2)NC(=O)N(CC(=O)Nc2ccc(OC(F)F)cc2)C1=O (stereo not given)", "CLASSIFICATION": 0.0}
{"COMPOUND": "O=C(COC(=O)c1ccccc1)Nc1ccccc1N1CCOCC1", "CLASSIFICATION": 0.0}
{"COMPOUND": "COc1ccccc1NC(=O)Cn1cnc2c(oc3nc4c(cc32)CCCC4)c1=O", "CLASSIFICATION": 0.0}
{"COMPOUND": "CC1CN(c2nc3ccccc3nc2C(C#N)C(=O)NCc2ccc3c(c2)OCO3)CC(C)O1 (stereo not given)", "CLASSIFICATION": 0.0}

Turning to the following compound.
Hey, what did the test say about O=C(NC(=S)Nc1ccccc1)c1cccs1 ? 1.0

---

Below, each entry is listed alongside its reported inhibition.
Molecular target: Potassium voltage-gated channel subfamily KQT member 1 (Homo sapiens) (UniProt P51787)
Sequence (P51787 whole entry, looked up): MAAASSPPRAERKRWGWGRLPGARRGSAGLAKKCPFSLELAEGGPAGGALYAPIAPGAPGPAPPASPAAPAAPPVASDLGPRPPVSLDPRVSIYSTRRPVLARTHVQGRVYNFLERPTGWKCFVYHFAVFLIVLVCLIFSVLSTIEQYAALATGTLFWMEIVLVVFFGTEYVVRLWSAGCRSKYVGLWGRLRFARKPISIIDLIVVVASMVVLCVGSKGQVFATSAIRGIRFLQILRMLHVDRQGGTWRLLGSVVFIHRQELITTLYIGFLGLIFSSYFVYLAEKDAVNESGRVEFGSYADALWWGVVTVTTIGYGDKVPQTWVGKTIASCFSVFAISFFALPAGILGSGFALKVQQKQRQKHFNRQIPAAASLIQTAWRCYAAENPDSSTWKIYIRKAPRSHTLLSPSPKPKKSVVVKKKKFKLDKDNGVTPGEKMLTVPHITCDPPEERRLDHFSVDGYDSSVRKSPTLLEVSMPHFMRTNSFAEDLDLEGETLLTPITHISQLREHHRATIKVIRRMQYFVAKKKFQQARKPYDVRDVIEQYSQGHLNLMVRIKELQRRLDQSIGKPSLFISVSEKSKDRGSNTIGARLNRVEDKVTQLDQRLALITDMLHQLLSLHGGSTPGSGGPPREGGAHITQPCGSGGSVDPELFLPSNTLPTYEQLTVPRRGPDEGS
Experiment: KCNQ1 potassium channel inhibitors, confirmation, cell-based, Tl flux, duplicate (AID 588353);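 note: 0% = buffer control ratio and 100% = XE991 inhibitor control ratio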
Conditions: KCNQ1 cell line, FluxOR thallium flux fluorescence, at 10 µM, hits give high values
Some of the results follow.
Output spec: scalar in %, unitless text.

// worked examples, inhibition included
{"CPD_SMILES": "O=C(NCC(F)(F)F)Nc1nnc(C(F)(F)F)s1", "QUANTITY": "inhibition", "UNITS_OF_MEASURE": "%", "REPORTED_MEASUREMENT": 26}
{"CPD_SMILES": "Cc1nc2ccccc2cc1OCc1ccc(F)cc1", "QUANTITY": "inhibition", "UNITS_OF_MEASURE": "%", "REPORTED_MEASUREMENT": 126}
{"CPD_SMILES": "Cc1c(C(=O)OC(C)C)sc(NC(=O)c2cccnc2)c1C#N", "QUANTITY": "inhibition", "UNITS_OF_MEASURE": "%", "REPORTED_MEASUREMENT": 74}
{"CPD_SMILES": "CNC(=O)c1ccsc1NC(=O)c1ccc(S(=O)(=O)N2CCc3ccccc32)cc1", "QUANTITY": "inhibition", "UNITS_OF_MEASURE": "%", "REPORTED_MEASUREMENT": 97}
{"CPD_SMILES": "CS(=O)(=O)N(CC(=O)Nc1ccc(Cl)c(Cl)c1)C1CCCCC1", "QUANTITY": "inhibition", "UNITS_OF_MEASURE": "%", "REPORTED_MEASUREMENT": 56.5}

The compound CC(C)OCCCNc1ncnc2c1[nH]c1ccc(F)cc12 , when measured on Potassium voltage-gated channel subfamily KQT member 1 (Homo sapiens) (UniProt P51787), yielded inhibition of 95.5

---

Assay: thallium flux activation in parental CHO cells, counter-screen for KCNQ1 potentiator project (AID 493006);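 for activation: fluorescence ratio of max minus min over baseline after K+ and Tl+ depolarization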
Settings: parental CHO-K1 cells, FluxOR thallium flux, at 10 µM
Calls of active or inactive are those of the source.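 How the source made its calls: active means duplicate-averaged activation above buffer control mean plus 5 SD of those controls; inactive means the rest.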
Permitted responses: YES = active, NO = inactive

Solved cases (3 shown):
{"MOLECULE": "S=c1[nH]nc(-c2ccco2)n1/N=C/c1cccc(Cl)c1Cl", "CLASSIFICATION": "NO"}
{"MOLECULE": "O=C(COc1ccccc1)N1CCN(S(=O)(=O)c2cccs2)CC1", "CLASSIFICATION": "NO"}
{"MOLECULE": "COc1cccc(N=Nc2ccc3cccnc3c2O)c1", "CLASSIFICATION": "YES"}

Kindly provide the recorded test outcome for the following molecule: CCOC(=O)c1cnc2c(C)c(Cl)ccc2c1N1CCN(CC)CC1 NO

---

Target: Potassium voltage-gated channel subfamily KQT member 1 (Homo sapiens) (UniProt P51787)
Assay: KCNQ1 potassium channel potentiators, confirmation, FluxOR thallium flux, CHO cells, duplicates (AID 493007)
Conditions: KCNQ1 cell line, FluxOR thallium flux fluorescence, at 10 µM, % of reference activator effect, buffer zero
Calls of active or inactive are those of the source.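 The calls were made as follows: active = potentiation averaged over duplicate wells exceeding buffer-only control mean by more than 3 SD; inactive = the rest.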
Select the correct class. Options are active, inactive and nothing else.

Please review the entries below; each comes with its answer.
{"COMPOUND": "CC1(C)Cc2c(sc3[nH]c(=S)n(Cc4ccccc4)c(=O)c23)CO1", "CLASSIFICATION": "active"}
{"COMPOUND": "O=c1cc(N2CCc3ccccc32)[nH]c(=O)n1Cc1ccc(F)cc1", "CLASSIFICATION": "inactive"}

Short answer needed: outcome of this test for CC(=O)/C=C1/C(=O)Nc2ccccc21 ? active

What call does the record list for Cc1ccc(F)cc1S(=O)(=O)NCc1ccc(N2CCN(C)CC2)cc1 ? inactive

# fetch the recorded call for CCOc1ccc(N2CC(C(=O)Nc3cc(Cl)ccc3-n3cncn3)CC2=O)cc1 (stereo not given) here inactive

---

Assay: thallium flux activation in parental CHO cells, counter-screen for KCNQ1 potentiator project (AID 493006);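 for activation: fluorescence ratio of max minus min over baseline after K+ and Tl+ depolarization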
Settings: parental CHO-K1 cells, FluxOR thallium flux, at 10 µM
Active and inactive are the calls of the source.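 How the source made its calls: active means duplicate-averaged activation above buffer control mean plus 5 SD of those controls; inactive means the rest.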
Hello, when you answer, please use one of the following outcomes: active, inactive

Kindly provide the recorded test outcome for the following compound: CCc1ccc(/C=C/C(=O)C2C(=O)c3ccccc3C2=O)cc1 active

Could you check what this test reported for Cn1cccc1/C=N/n1c(-c2ccc(C(C)(C)C)cc2)n[nH]c1=S ? inactive

Query: recorded result category for C/C(=N\NC(=O)c1cccc(Br)c1)c1ccccn1 in this test inactive

---

Molecular target: Short transient receptor potential channel 4 (Mus musculus) (UniProt Q9QUQ5)
Sequence (Q9QUQ5 whole entry, looked up): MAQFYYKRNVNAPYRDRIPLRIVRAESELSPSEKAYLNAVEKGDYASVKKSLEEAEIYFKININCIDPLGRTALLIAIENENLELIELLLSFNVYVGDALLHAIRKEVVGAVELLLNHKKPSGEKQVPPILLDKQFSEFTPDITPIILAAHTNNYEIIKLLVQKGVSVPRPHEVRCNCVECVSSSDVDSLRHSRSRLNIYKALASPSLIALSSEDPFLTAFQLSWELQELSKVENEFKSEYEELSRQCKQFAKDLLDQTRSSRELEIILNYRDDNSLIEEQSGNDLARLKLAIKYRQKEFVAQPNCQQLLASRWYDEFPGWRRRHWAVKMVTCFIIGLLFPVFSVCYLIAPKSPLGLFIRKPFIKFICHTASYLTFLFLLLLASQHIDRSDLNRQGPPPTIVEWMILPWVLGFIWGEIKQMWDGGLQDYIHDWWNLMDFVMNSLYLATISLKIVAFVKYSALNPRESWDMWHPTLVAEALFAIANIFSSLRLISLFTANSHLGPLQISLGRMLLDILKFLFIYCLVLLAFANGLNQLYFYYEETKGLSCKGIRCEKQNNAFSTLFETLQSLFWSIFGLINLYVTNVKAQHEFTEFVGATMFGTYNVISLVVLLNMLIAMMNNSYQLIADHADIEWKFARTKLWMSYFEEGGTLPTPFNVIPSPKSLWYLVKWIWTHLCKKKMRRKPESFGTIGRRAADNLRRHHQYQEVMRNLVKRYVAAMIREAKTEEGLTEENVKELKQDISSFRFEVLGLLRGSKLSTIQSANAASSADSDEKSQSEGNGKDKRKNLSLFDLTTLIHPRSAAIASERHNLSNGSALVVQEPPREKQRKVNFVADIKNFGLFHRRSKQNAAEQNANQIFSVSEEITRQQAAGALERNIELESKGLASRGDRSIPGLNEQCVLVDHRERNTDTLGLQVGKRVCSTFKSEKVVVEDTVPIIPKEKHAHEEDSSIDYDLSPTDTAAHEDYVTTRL
Assay: inhibitors of mouse TRPC4 channel, confirmation, cell-based, Fluo4, HEK293 TRPC4beta/mu-opioid (AID 2636)
Details: DAMGO, Fluo4 calcium flux, at 10 µM
Calls of active or inactive are those of the source.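 How the source made its calls: active means calcium signal cut by more than 3 SD below the full-agonist control yet still positive, in both repeats and the earlier primary screen; inactive means the rest.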
Outcomes you can answer with include only these: Yes (active), No (inactive)

State the result this test recorded for CCN1CCN(c2ccc(S(=O)(=O)N3CCCCC3)cc2NC(=O)C(C)Oc2ccc(F)cc2)CC1 (centres undefined) . No

Entry O=C(NC1CC1)C1=C[C@H](C2CCCCC2)C[C@H](OCc2ccc(CO)cc2)O1 : call = ? Yes

Dear all, I need the recorded test outcome for C#Cc1cccc(C(=O)NC2CCCN(C3Cc4ccccc4C3)C2)c1 (centres undefined) , thank you. No

Please indicate how the test categorized CCCCc1cc(O)c(CCCC)c(O)c1 . No

---

Assay: parental HEK293 membrane potential modulation, confirmation, counter-screen for TRPC6 modulator project, cell-based (AID 488924)
Conditions: parental HEK293, membrane potential dye fluorescence; at 10 µM
This is one part of the list. The source made the active and inactive calls.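 The calls were made as follows: active = membrane potential signal moves up or down beyond 5 SD from buffer-only wells, on both duplicate plates; inactive = the rest.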
The reply should be one of these categories: active, inactive

Reference set, count: 3
{"COMPOUND": "Cc1c(CCOC(=O)CC23CC4CC(CC(C)(C4)C2)C3)sc[n+]1Cc1ccc([N+](=O)[O-])cc1", "CLASSIFICATION": "active"}
{"COMPOUND": "CCCC(=O)Nc1ccc(C(=O)NCCCn2ccnc2)cc1", "CLASSIFICATION": "inactive"}
{"COMPOUND": "CN1CCN(c2ccc([N+](=O)[O-])c(Sc3nc4ccccc4[nH]3)c2)CC1", "CLASSIFICATION": "active"}

Now examine the next entry.
Query: recorded result category for Cc1nc(C(=O)NCc2ccccc2)sc1C1(C)CC(c2cccnc2)=NO1 (centres undefined) in this test inactive
